# measurement target: T1, recombinant cynomolgus monkey (Macaca fascicularis) TfR1 (cynomolgus monkey (Macaca fascicularis), UniProt Q5RDH6 87-760 (Pongo abelii entry), limits assumed)
# T1 construct: Recombinant protein; also called cTfR1; cyTfR1
# T1 chain: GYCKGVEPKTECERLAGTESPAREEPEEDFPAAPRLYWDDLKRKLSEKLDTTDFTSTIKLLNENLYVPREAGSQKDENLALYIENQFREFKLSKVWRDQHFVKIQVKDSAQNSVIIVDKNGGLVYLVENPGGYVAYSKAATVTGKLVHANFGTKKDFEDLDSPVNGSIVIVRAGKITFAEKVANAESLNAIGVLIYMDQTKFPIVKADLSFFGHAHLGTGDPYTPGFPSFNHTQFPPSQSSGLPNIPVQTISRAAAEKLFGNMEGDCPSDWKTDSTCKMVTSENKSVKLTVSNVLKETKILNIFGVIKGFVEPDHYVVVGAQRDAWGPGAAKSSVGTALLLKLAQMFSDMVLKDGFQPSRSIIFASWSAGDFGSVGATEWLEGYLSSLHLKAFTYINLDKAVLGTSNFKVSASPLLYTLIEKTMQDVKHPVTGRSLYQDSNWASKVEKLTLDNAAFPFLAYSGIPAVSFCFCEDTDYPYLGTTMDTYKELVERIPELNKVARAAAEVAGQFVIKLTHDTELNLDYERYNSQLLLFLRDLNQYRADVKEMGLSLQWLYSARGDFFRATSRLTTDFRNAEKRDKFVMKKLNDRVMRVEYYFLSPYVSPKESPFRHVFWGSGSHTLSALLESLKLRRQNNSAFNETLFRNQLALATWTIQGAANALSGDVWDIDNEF
# assay overview: Table 14, unconjugated Fab, d9 (after 9 days at 40 C); method not named
measure: Binding affinity (nM)
Express the result in nM but write the number alone.

binder | result units | Binding affinity
humanized anti-TfR Fab 5H12 VH5 (C33Y)/Vκ4 (Fab, V domains shown, also called 5H12 (VH5-C33Y/Vk4)) VH: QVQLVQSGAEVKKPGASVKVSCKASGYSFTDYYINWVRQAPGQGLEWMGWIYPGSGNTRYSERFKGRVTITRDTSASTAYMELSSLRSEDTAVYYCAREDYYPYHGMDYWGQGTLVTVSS VL: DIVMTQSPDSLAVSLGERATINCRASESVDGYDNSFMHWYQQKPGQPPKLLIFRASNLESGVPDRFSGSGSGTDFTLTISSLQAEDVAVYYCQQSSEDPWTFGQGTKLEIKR | nM | 0.26

Attention now turns to another entry.
Item humanized anti-TfR Fab 3A4 VH3/Vκ4 (Fab, V domains shown, also called 3A4 (VH3/Vk4)) VH: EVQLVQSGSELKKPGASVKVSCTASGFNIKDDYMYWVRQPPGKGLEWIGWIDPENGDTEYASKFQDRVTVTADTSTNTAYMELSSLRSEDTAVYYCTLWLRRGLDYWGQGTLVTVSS VL: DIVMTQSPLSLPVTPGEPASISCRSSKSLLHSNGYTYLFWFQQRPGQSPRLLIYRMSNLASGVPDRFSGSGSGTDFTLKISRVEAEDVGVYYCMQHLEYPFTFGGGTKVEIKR has what recorded Binding affinity?
878
